# experimental-target: Aurora kinase A (Homo sapiens) (UniProt O14965)
# Sequence (whole entry): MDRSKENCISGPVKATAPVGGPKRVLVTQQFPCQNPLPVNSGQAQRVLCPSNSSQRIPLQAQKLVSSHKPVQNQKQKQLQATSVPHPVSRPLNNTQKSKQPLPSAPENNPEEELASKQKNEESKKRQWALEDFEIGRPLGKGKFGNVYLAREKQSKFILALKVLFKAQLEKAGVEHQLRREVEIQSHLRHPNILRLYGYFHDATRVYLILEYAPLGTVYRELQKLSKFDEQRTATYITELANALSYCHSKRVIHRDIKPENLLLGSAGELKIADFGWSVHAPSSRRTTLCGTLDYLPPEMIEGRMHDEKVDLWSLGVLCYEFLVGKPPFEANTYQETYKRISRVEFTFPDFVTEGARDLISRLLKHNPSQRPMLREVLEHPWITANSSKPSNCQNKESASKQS
# experiment-notes: Inhibition of AurA at 30 uM by microfluidic mobility shift assay
endpoint-name: inhibition (%)
Field format: number, assumed %, no unit text.

Look over these answered cases.
Nc1n[nH]c2cc(-c3cccs3)[nH]c(=O)c12 67
Nc1n[nH]c2cc(-c3ccncc3)[nH]c(=O)c12 43
CN1CCN(c2ccc(-c3cc4[nH]nc(N)c4c(=O)[nH]3)cc2)CC1 51
Cn1nc(N)c2c(=O)[nH]c(-c3ccccn3)cc21 7
COc1ccc(S(=O)(=O)Nc2nn(C)c3cc(C)[nH]c(=O)c23)c(OC)c1 -9

Shift focus to the following entry.
Look at this compound and give its reported inhibition. Cc1cc2[nH]nc(N)c2cn1
31
